# Test system: Uterine Eosinophil Peroxidase (EPO)
# Set-up: species or system Sprague Dawley rats
# ASSAY_SETUP: rat, in vivo, po, 0.1 mg/kg
READOUT_KIND: Uterine EPO (V. max)
Answer with the value's number alone.

Enquiry: Which value of Uterine EPO (V. max) has been reported for Oc1ccc(-c2sc3cc(O)ccc3c2C(O)(c2ccccc2)c2ccc(OCCN3CCCCC3)cc2)cc1 (centres unmarked) [Example 8] in the records?
Return: 3.6

Enquiry: Which value of Uterine EPO (V. max) has been reported for C#C[C@]1(O)CC[C@H]2[C@@H]3CCc4cc(O)ccc4[C@H]3CC[C@@]21C [EE2, 17α-ethynyl estradiol, reference compound] in the records?
Return: 189.6

Enquiry: Which value of Uterine EPO (V. max) has been reported for CC(c1ccc(OCCN2CCCCC2)cc1)c1c(-c2ccc(O)cc2)sc2cc(O)ccc12 (centres unmarked) [Example 4] in the records?
Return: 3.6

Enquiry: Which value of Uterine EPO (V. max) has been reported for O=C(c1ccc(OCCN2CCCCC2)cc1)c1c(-c2ccc(O)cc2)sc2cc(O)ccc12 [Raloxifene, reference compound] in the records?
Return: 5.4

Enquiry: Which value of Uterine EPO (V. max) has been reported for CC(O)(c1ccc(OCCN2CCCCC2)cc1)c1c(-c2ccc(O)cc2)sc2cc(O)ccc12 (centres unmarked) [Example 2] in the records?
Return: 5.1
